Origin of values: ChEMBL document CHEMBL5154919

Test system: HCT-116
assay-protocol: Antiproliferative activity against human HCT-116 cells assessed as inhibition of cell growth measured by MTS method
Type: functional, cell-based
Exercise: for every item that follows, state its recorded pIC50.
A value of pIC50 is the negative decimal logarithm of a concentration given in moles per litre.

pIC50 measured on `CC(C)(Oc1cccc(N2CCC[C@@H](C(=O)N(Cc3ccc(-c4ccnc5[nH]ccc45)cc3)C3CC3)C2)c1)C(=O)N1CCNCC1` = 5.11

Kindly note the recorded pIC50 for `CC(C)(Oc1cccc(N2CCC[C@@H](C(=O)N(Cc3ccc(-c4c[nH]c5ncccc45)cc3)C3CC3)C2)c1)C(=O)N1CCNCC1` , which is 5.09

Data point: `CC(C)(Oc1cccc(N2CCC[C@@H](C(=O)N(Cc3ccc(-c4cnc5[nH]ccc5c4)cc3)C3CC3)C2)c1)C(=O)N1CCNCC1.Cl` ; pIC50 = 5.02

----------
Give measured IC50 for each item. Keep answers brief.
target-of-assay: beta-catenin-B-cell lymphoma 9 protein complex (Homo sapiens)
assay-protocol: Inhibition of full length beta-catenin (1 to 781 residues) (unknown origin) expressed in Escherichia coli BL21 (DE3)-N-terminal biotinylated human BCL9 (350 to 375 residues) protein-protein interaction incubated for 1 hr by Alphascreen assay
Answer with a number only, understood to be in µM.

Looking up `CC(C)N(Cc1ccc(-c2cn[nH]c2)cc1)C(=O)[C@@H]1CCCN(c2cccc(OC(C)(C)C(=O)N3CCNCC3)c2)C1` , I found its IC50 recorded as 8.9

IC50 measured on `CN(Cc1ccc(-c2cn[nH]c2)cc1)C(=O)[C@@H]1CCCN(c2cccc(OC(C)(C)C(=O)N3CCNCC3)c2)C1` = 28

The compound `CC(C)(Oc1cccc(N2CCC[C@@H](C(=O)N(Cc3ccc(-c4cn[nH]c4)cc3)C3CC3)C2)c1)C(=O)N1C[C@H]2CNC[C@H]2C1` showed IC50 equal to 8.3

// sample `O=C([C@@H]1CCCN(c2cccc(OC3(C(=O)N4CCNCC4)CC3)c2)C1)N(Cc1ccc(-c2cn[nH]c2)cc1)C1CC1` , its IC50 was 29

----------
Assign IC50 to each entry below.
target-of-assay: beta-catenin-B-cell lymphoma 9 protein complex (Homo sapiens, UniProt P35222)
Sequence (P35222 whole entry): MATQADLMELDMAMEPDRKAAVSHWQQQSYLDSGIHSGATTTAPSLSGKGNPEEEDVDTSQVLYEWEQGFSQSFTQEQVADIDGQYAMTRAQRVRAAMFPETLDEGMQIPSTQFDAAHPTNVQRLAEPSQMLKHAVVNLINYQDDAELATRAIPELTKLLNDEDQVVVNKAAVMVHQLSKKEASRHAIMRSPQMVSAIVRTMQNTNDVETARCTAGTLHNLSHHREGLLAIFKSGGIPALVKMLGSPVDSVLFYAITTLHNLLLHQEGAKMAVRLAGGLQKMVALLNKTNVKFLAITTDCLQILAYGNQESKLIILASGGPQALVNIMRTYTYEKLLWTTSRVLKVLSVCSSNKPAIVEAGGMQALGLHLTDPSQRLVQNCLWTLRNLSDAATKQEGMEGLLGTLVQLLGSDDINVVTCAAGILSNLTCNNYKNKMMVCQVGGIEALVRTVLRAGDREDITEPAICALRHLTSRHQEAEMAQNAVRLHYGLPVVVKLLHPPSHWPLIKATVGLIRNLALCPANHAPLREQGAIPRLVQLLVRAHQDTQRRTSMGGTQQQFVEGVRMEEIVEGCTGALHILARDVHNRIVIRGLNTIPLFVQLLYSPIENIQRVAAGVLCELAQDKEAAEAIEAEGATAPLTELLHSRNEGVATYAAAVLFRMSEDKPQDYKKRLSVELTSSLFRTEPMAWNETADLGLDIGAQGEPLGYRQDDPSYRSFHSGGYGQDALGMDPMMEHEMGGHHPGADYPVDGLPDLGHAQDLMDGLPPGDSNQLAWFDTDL
Sequence (O00512 whole entry): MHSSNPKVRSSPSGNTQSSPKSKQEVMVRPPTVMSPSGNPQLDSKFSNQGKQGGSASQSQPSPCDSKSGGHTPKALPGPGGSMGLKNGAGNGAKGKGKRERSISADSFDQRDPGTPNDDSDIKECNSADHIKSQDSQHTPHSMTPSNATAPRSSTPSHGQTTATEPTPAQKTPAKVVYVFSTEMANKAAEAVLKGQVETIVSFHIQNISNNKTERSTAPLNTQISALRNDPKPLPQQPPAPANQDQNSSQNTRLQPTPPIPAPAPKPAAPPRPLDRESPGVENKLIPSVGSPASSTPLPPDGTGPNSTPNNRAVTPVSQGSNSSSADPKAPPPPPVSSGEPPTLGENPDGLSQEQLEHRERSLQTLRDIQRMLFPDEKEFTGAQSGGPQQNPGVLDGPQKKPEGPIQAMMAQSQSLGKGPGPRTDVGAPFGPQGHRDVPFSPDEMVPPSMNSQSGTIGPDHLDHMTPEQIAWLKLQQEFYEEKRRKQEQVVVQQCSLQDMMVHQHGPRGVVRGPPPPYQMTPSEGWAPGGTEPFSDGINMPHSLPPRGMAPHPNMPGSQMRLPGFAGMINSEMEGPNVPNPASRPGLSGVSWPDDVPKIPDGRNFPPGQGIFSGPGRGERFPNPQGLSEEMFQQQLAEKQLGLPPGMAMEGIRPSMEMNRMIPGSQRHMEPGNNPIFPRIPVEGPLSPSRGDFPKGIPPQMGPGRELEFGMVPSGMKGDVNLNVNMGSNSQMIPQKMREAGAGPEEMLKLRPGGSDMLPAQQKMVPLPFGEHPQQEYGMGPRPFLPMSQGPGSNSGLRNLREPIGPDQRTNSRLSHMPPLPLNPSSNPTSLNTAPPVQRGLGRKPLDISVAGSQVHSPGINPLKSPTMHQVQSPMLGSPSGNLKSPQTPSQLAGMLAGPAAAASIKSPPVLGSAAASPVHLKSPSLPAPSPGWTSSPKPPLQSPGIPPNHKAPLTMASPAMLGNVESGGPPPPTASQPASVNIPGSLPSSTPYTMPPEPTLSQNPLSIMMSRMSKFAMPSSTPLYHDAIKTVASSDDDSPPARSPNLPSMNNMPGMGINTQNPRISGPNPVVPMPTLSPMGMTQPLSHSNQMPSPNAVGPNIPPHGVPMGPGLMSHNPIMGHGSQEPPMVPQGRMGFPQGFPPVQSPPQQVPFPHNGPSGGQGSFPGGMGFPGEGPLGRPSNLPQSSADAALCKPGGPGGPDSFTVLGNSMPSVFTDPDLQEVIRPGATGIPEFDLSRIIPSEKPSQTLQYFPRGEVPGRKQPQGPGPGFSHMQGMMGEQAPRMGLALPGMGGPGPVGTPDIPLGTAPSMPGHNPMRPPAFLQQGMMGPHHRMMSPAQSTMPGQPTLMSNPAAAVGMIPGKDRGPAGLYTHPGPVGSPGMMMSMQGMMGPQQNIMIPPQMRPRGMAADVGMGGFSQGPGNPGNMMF
assay-protocol: Inhibition of full length beta-catenin (1 to 781 residues) (unknown origin) expressed in Escherichia coli BL21 (DE3)-N-terminal biotinylated human BCL9 (350 to 375 residues) protein-protein interaction incubated for 1 hr by Alphascreen assay
State the answer as a number, implicitly in µM.

IC50 reading for `CC(C)(Oc1cccc(N2CCC[C@@H](C(=O)N(Cc3ccc(-c4cn[nH]c4)cc3)CC3CC3)C2)c1)C(=O)N1CCNCC1` : 18

Looking up `CC(C)(Oc1cccc(N2CCC[C@@H](C(=O)N(Cc3ccc(-c4cn[nH]c4)cc3)C3CCCC3)C2)c1)C(=O)N1CCNCC1` , I found its IC50 recorded as 7.6

Per the records, this molecule ( `CC(C)(Oc1cccc(N2CCC[C@@H](C(=O)N(Cc3ccc(-c4cn[nH]c4)cc3)C3CC3)C2)c1)C(=O)N1CC2(CCNCC2)C1` ) has IC50 equal to 38

Entry under test: `CC(C)(Oc1cccc(N2CCC[C@@H](C(=O)NCc3ccc(-c4cn[nH]c4)cc3)C2)c1)C(=O)N1CCNCC1` . Its IC50 was 81

The value of IC50 measured for the molecule `CC(C)(Oc1cccc(N2CCC[C@@H](C(=O)N(Cc3ccc(-c4c[nH]c5ccccc45)cc3)C3CC3)C2)c1)C(=O)N1CCNCC1` turned out to be 1.4

// recorded IC50 for `O=C([C@@H]1CCCN(c2cccc(OC3(C(=O)N4CCNCC4)CCCC3)c2)C1)N(Cc1ccc(-c2cn[nH]c2)cc1)C1CC1` : 43

Per the record, `CC(C)(Oc1cccc(N2CCC[C@@H](C(=O)N(Cc3ccc(-c4cn[nH]c4)cc3)C3CCC3)C2)c1)C(=O)N1CCNCC1` has IC50 of 12

----------
target-of-assay: beta-catenin-B-cell lymphoma 9 protein complex (Homo sapiens)
assay-protocol: Inhibition of full length beta-catenin (1 to 781 residues) (unknown origin) expressed in Escherichia coli BL21 (DE3)-N-terminal biotinylated human BCL9 (350 to 375 residues) protein-protein interaction incubated for 1 hr by Alphascreen assay
Please provide measured pKi for the entries that follow.
For clarity, pKi is expressed as the negative log10 of concentration in mol/L.

Reported pKi for `CC(C)N(Cc1ccc(-c2cn[nH]c2)cc1)C(=O)[C@@H]1CCCN(c2cccc(OC(C)(C)C(=O)N3CCNCC3)c2)C1` was 5.10

Value of measured pKi for the entry `CC(C)(Oc1cccc(N2CCC[C@@H](C(=O)N(Cc3ccc(-c4cn[nH]c4)cc3)C3CCC3)C2)c1)C(=O)N1CCNCC1` : 4.96

Kindly note the recorded pKi for `CN(Cc1ccc(-c2cn[nH]c2)cc1)C(=O)[C@@H]1CCCN(c2cccc(OC(C)(C)C(=O)N3CCNCC3)c2)C1` , which is 4.60

Note to self: pKi recorded for `CC(C)(Oc1cccc(N2CCC[C@@H](C(=O)N(Cc3ccc(-c4c[nH]c5ccccc45)cc3)C3CC3)C2)c1)C(=O)N1CCNCC1` was 5.92

The compound identified as `CC(C)(Oc1cccc(N2CCC[C@@H](C(=O)N(Cc3ccc(-c4cccc5[nH]ncc45)cc3)C3CC3)C2)c1)C(=O)N1CCNCC1` registered its pKi at 5.70

The measured pKi associated with CC(C)(Oc1cccc(N2CCC[C@@H](C(=O)N(Cc3ccc(-c4cn[nH]c4)cc3)C3CC3)C2)c1)C(=O)N1CCC2(CCNC2)C1 (stereo not given in full) reads 5.01

Looking up `CC(C)(Oc1cccc(N2CCC[C@@H](C(=O)N(Cc3ccc(-c4cn[nH]c4)cc3)CC3CC3)C2)c1)C(=O)N1CCNCC1` , I see its pKi listed as 4.82

Recorded result, `CC(C)(Oc1cccc(N2CCC[C@@H](C(=O)N(Cc3ccc(-c4cn[nH]c4)cc3)C3CC3)C2)c1)C(=O)N1CC2(CCNCC2)C1` , pKi: 4.51

Reported pKi ( `CC(C)(Oc1cccc(N2CCC[C@@H](C(=O)NCc3ccc(-c4cn[nH]c4)cc3)C2)c1)C(=O)N1CCNCC1` ) = 4.14

pKi reading for `CC(C)(Oc1cccc(N2CCC[C@@H](C(=O)N(Cc3ccc(-c4cn[nH]c4)cc3)C3CCCC3)C2)c1)C(=O)N1CCNCC1` : 5.17
